Assay: antimalarial activity against Dd2 strain (AID 2302);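 note: 0% = DMSO untreated growth and 100% = chloroquine plus artemisinin killed control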
Settings: P. falciparum Dd2 in RBCs, LDH growth readout, 72 h; at 2 µM; hits give high values
Known growth inhibition of a selection of compounds
# output: bare number, implied unit %

These recorded examples may help you get a feel for the data.
CC1(C)N=C(N)N=C(N)N1OCCSc1ccc(Cl)c(Cl)c1 :: 95
Cc1cc(OC(C)C(=O)N2CCc3ccccc32)ccc1Cl (stereo not given) :: 54
Cc1cccc2[nH]c(-c3cccc(-c4ccc(NC(=O)CS(C)(=O)=O)cc4)c3)nc12 :: 8
Cc1ccc(Cn2ncc(N3CCNCC3)c(Cl)c2=O)cc1NC(=O)Nc1ccc(-c2ccccc2)cc1 :: 30
COCCNC(=O)c1ccc(OC2CCN(Cc3ccc(F)c(F)c3)CC2)c(Cl)c1 :: 73
NS(=O)(=O)c1cncc(-c2ccc3nccc(-c4cn[nH]c4)c3n2)c1 :: 100
Nc1nc(N)c2c(ccc3c2cnn3S(=O)(=O)N2CCCC2)n1 :: 3
Oc1ccc(CCNc2nc(NCc3ccccc3-c3ccc(C(F)(F)F)cc3)nc(NC3CCNCC3)n2)cc1 :: 2

In plain terms, O=C(Nc1ccc2c(ccn2C2CCCN(Cc3cc(F)cc(F)c3F)CC2)c1)c1ccco1 (stereo not given) has a documented growth inhibition of 94

Record summary for CCCc1ccc(C2CCN(CCCCNC(=O)c3ccc(NC(=O)c4ccc(Cl)cc4)cc3)CC2)cc1 : reported growth inhibition = 100

In plain terms, CCOC(=O)c1cn(CC)c2cc(F)c(OC3C[C@@H]4CC[C@@]3(C)C4(C)C)cc2c1=O (stereo not given in full) has a documented growth inhibition of 70

Value of measured growth inhibition for the entry FC(F)(F)c1ccc2nc(-c3ccc(-c4cccc(CNCC5CCCO5)c4)cc3)[nH]c2c1 (stereo not given) : 100

Entry CCOC(=O)c1cc(C(=O)OC)c2ccccn12 , growth inhibition reported as 2

The compound listed as CC(=NN=C(N)N)c1ccc2c(c1)Cc1ccccc1-2 has a reported growth inhibition of 10

Lab note: measured growth inhibition of Cn1cnc(CCNC(=O)c2ccc(-c3cccc(-c4nc5ccc(C(F)(F)F)cc5[nH]4)c3)cc2)c1 was 93

Measured growth inhibition, Clc1cc(Cl)cc(Nc2ccnc(Nc3cc(Cl)cc(Cl)c3)n2)c1 : 73

* * *

// values below are reported growth inhibition
Test: inhibition of 3D7 malaria parasite growth – strain 3D7 (AID 2306);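 note: 0% = DMSO wells and 100% = chloroquine plus artemisinin control wells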
Details: P. falciparum 3D7 erythrocytic growth, LDH absorbance, 72 h; at 2 µM; hits give high values
Record the value in %, omitting the unit from your answer.

Oc1ccc(CCNc2nc(NCc3ccc4cc(Cl)ccc4c3)nc(N3CCNCC3)n2)cc1 :: 92
Cc1cc(NCc2ccccc2)nc(NCc2ccccc2)n1 :: 91
CNc1ccc(CNCc2cccc(-c3ccc(-c4nc5c(C)cccc5[nH]4)cc3)c2)cc1 :: 102
CC(C)(C)C(=O)Oc1ccc(CC2NCCc3cc(OC(=O)C(C)(C)C)c(OC(=O)C(C)(C)C)cc32)cc1OC(=O)C(C)(C)C (centres undefined) :: 97
O=C(Nc1cccc(-c2ccc(CN3CCC(O)CC3)cc2)c1)c1cccc(Cl)c1 :: 96
CC(C)Sc1nc2c(c(=O)n1Cc1ccco1)C1(CCCC1)Cc1ccccc1-2 :: 98

Entry CC(C)N1CCC(N(Cc2ccc(-c3ccc(Cl)cc3)cc2)C(=O)Cn2c(CCc3cccc(F)c3F)nc(=O)c3ccccc32)CC1 ; growth inhibition = 86

Measured growth inhibition, Clc1cc(Cl)c2c(c1)C(NCCCNc1nc3ccccc3[nH]1)CCO2 (centres undefined) : 101

Entry COc1ccc(-c2cccc(NC(=O)c3ccc(Cl)cc3)c2)cc1CNC(C)C ; growth inhibition = 101

# credit: PubChem BioAssay
